testedSystem: HLA-B*27:03
assayNotes: IEDB peptide-MHC binding, purified MHC/competitive/fluorescence; filed as Kd, often an IC50 or EC50 that approximates it; bounds were set here for any values at or beyond the usual limits of such assays
settings: source organism: Mus musculus
assayReadout: Kd

-- ask In one line, give reported Kd of the entry CLVSGLSSL .
-- reply ≥ 20 µM

====

testedSystem: HLA-B*46:01
assayNotes: IEDB peptide-MHC binding, purified MHC/direct/fluorescence; filed as Kd, often an IC50 or EC50 that approximates it; bounds were set here for any values at or beyond the usual limits of such assays
settings: source organism: West Nile virus
pKd: −log10 of the molar value.
Reported values of pKd for individual entries

-- ask In one line, give reported pKd of the entry GMSWITQGL .
-- reply ≤ 4.70

-- ask In one line, give reported pKd of the entry GRGPIRFVL .
-- reply ≤ 4.70

====

testedSystem: HLA-B*46:01
assayNotes: IEDB peptide-MHC binding, purified MHC/direct/fluorescence; filed as Kd, often an IC50 or EC50 that approximates it; bounds were set here for any values at or beyond the usual limits of such assays
settings: source organism: Camelpox virus M-96
pKd: −log10 of the molar value.
assayReadout: pKd

-- ask In one line, give reported pKd of the entry SLYKYLLLR .
-- reply ≤ 4.70

====

testedSystem: HLA-A*23:01
assayNotes: IEDB peptide-MHC binding, purified MHC/competitive/radioactivity; filed as Kd, often an IC50 or EC50 that approximates it; bounds were set here for any values at or beyond the usual limits of such assays
settings: source organism: Mammarenavirus brazilense
Reported values of Kd for individual entries
Kindly format the answer as number then unit.

As a guide, the following entries are already answered.
EFFECFKYLL	624 nM
ICSSVLKRY	14600 nM

-- ask In one line, give reported Kd of the entry LYTVKFPNLI .
-- reply 538 nM

====

testedSystem: HLA-A*26:01
assayNotes: IEDB peptide-MHC binding, purified MHC/competitive/fluorescence; filed as Kd, often an IC50 or EC50 that approximates it; bounds were set here for any values at or beyond the usual limits of such assays
settings: source organism: Bacillus cereus G9241
assayReadout: Kd (µM)
API: value field is a number in µM; no unit string.

-- ask In one line, give reported Kd of the entry ELILDRGYY .
-- reply 0.211

====

testedSystem: HLA-A*26:03
assayNotes: IEDB peptide-MHC binding, purified MHC/direct/fluorescence; filed as Kd, often an IC50 or EC50 that approximates it; bounds were set here for any values at or beyond the usual limits of such assays
settings: source organism: Mycobacterium tuberculosis str. Haarlem
pKd: −log10 of the molar value.
assayReadout: pKd

-- ask In one line, give reported pKd of the entry KYFVRSTEK .
-- reply ≤ 4.70

====

testedSystem: HLA-B*07:02
assayNotes: IEDB peptide-MHC binding, purified MHC/direct/fluorescence; filed as Kd, often an IC50 or EC50 that approximates it; bounds were set here for any values at or beyond the usual limits of such assays
settings: source organism: Mammarenavirus lassaense
assayReadout: Kd

-- ask # return Kd of ILNHKFCNL (system: HLA-B*07:02)
-- reply ≥ 20 µM

====

testedSystem: HLA-B*08:02
assayNotes: IEDB peptide-MHC binding, purified MHC/direct/fluorescence; filed as Kd, often an IC50 or EC50 that approximates it; bounds were set here for any values at or beyond the usual limits of such assays
settings: source organism: Mycobacterium tuberculosis CDC1551
assayReadout: Kd

-- ask In one line, give reported Kd of the entry ALRSRWRAL .
-- reply ≥ 20 µM
